Kindly supply the reported activity coefficient values for the records listed here.
assay-info: activity coefficient (dimensionless); of the first substance listed, at infinite dilution; xn = mol fraction of the nth substance listed
stated-conditions: 323.15 K; Liquid; Chromatography; x1 = 0
One number for each entry.

compound	activity coefficient
Cc1ccccc1 [toluene] + Cn1cc[n+](COCCCOC[n+]2ccn(C)c2)c1.N#C[N-]C#N.N#C[N-]C#N	5.63

Quick request: activity coefficient for each listed item, please.
1. c1ccsc1 [thiophene] + CCCOC[n+]1ccn(Cc2ccccc2)c1.N#C[N-]C#N
2. CC#N [acetonitrile] + Cn1cc[n+](COCCCOC[n+]2ccn(C)c2)c1.N#C[N-]C#N.N#C[N-]C#N
3. C#CCCCCC [1-heptyne] + Cn1cc[n+](COCCCOC[n+]2ccn(C)c2)c1.O=S(=O)([N-]S(=O)(=O)C(F)(F)F)C(F)(F)F.O=S(=O)([N-]S(=O)(=O)C(F)(F)F)C(F)(F)F
4. CCO [ethanol] + CCCOC[n+]1ccn(C)c1.O=S(=O)([N-]S(=O)(=O)C(F)(F)F)C(F)(F)F
5. Cc1ccccc1 [toluene] + Cn1cc[n+](COCCCOC[n+]2ccn(C)c2)c1.O=S(=O)([N-]S(=O)(=O)C(F)(F)F)C(F)(F)F.O=S(=O)([N-]S(=O)(=O)C(F)(F)F)C(F)(F)F
6. CC(C)OC(C)C [diisopropyl ether] + CN(C)c1cc[n+](COCCCOC[n+]2ccc(N(C)C)cc2)cc1.O=S(=O)([N-]S(=O)(=O)C(F)(F)F)C(F)(F)F.O=S(=O)([N-]S(=O)(=O)C(F)(F)F)C(F)(F)F
7. c1ccccc1 [benzene] + Cn1cc[n+](COCCCOC[n+]2ccn(C)c2)c1.O=S(=O)([N-]S(=O)(=O)C(F)(F)F)C(F)(F)F.O=S(=O)([N-]S(=O)(=O)C(F)(F)F)C(F)(F)F

Reply:
1: 0.98; 2: 0.68; 3: 5.9; 4: 1.51; 5: 1.46; 6: 5.9; 7: 0.94

Quick request: activity coefficient for each listed item, please.
1. C=CCCCC [hex-1-ene] + CCCOC[n+]1ccn(Cc2ccccc2)c1.N#C[N-]C#N
2. CCCO [propan-1-ol] + CCCCCCCCn1cc[n+](COCCC)c1C.O=S(=O)([N-]S(=O)(=O)C(F)(F)F)C(F)(F)F
3. Cc1ccccc1C [1,2-dimethylbenzene] + CCCOC[n+]1ccn(Cc2ccccc2)c1.O=S(=O)([N-]S(=O)(=O)C(F)(F)F)C(F)(F)F
4. CC(C)CO [2-methyl-1-propanol] + CCCCCCCCn1cc[n+](COCCCOC[n+]2ccn(CCCCCCCC)c2C)c1C.N#C[N-]C#N.N#C[N-]C#N
5. Cc1ccc(C)cc1 [1,4-dimethylbenzene] + CCCOC[n+]1ccc(N(C)C)cc1.O=S(=O)([N-]S(=O)(=O)C(F)(F)F)C(F)(F)F

Reply:
1. 15.9
2. 1.16
3. 1.58
4. 0.36
5. 1.38

---

assay-info: activity coefficient (dimensionless); of the first substance listed, at infinite dilution; xn = mol fraction of the nth substance listed
stated-conditions: 343.15 K; Liquid; Chromatography; x1 = 0
Label Met when activity coefficient is strictly below 1; at or above that, label Not met.

A selection of reference data follows.
molecule	group
CCc1ccccc1 [ethylbenzene] + CCCOC[n+]1ccn(Cc2ccccc2)c1.O=S(=O)([N-]S(=O)(=O)C(F)(F)F)C(F)(F)F	Not met
C1CCCCCC1 [cycloheptane] + CCCOC[n+]1ccn(C)c1.N#C[N-]C#N	Not met
CCC(=O)CC [pentan-3-one] + CCCCCCCCn1cc[n+](COCCCOC[n+]2ccn(CCCCCCCC)c2C)c1C.O=S(=O)([N-]S(=O)(=O)C(F)(F)F)C(F)(F)F.O=S(=O)([N-]S(=O)(=O)C(F)(F)F)C(F)(F)F	Met
CCCC(C)=O [pentan-2-one] + CCCCCCCCn1cc[n+](COCCC)c1C.O=S(=O)([N-]S(=O)(=O)C(F)(F)F)C(F)(F)F	Met
Cc1ccccc1 [toluene] + CCCCCCCCn1cc[n+](COCCC)c1C.N#C[N-]C#N	Not met

Next up:
Query: Say whether its activity coefficient is strictly beneath 1. Entry: Cc1ccccc1C [1,2-dimethylbenzene] + N#C[N-]C#N.N#C[N-]C#N.c1ccc(Cn2cc[n+](COCCCOC[n+]3ccn(Cc4ccccc4)c3)c2)cc1
Reply: Not met

---

Kindly supply the reported activity coefficient values for the records listed here.
assay-info: activity coefficient (dimensionless); of the first substance listed, at infinite dilution; xn = mol fraction of the nth substance listed
stated-conditions: 323.15 K; Liquid; Chromatography; x1 = 0
Numbers only.

compound	activity coefficient
CC1CCCCC1 [methylcyclohexane] + CCCCCCCCn1cc[n+](COCCC)c1C.N#C[N-]C#N	5.11

Quick request: activity coefficient for each listed item, please.
1. Cc1cccc(C)c1 [1,3-dimethylbenzene] + CCCCCCCCn1cc[n+](COCCCOC[n+]2ccn(CCCCCCCC)c2C)c1C.O=S(=O)([N-]S(=O)(=O)C(F)(F)F)C(F)(F)F.O=S(=O)([N-]S(=O)(=O)C(F)(F)F)C(F)(F)F
2. Cc1ccccc1C [1,2-dimethylbenzene] + CCCOC[n+]1ccn(C)c1.N#C[N-]C#N

Reply:
0.75
5.05

---

assay-info: activity coefficient (dimensionless); of the first substance listed, at infinite dilution; xn = mol fraction of the nth substance listed
stated-conditions: 343.15 K; Liquid; Chromatography; x1 = 0
Kindly supply the reported activity coefficient values for the records listed here.
Give bare numbers.

compound	recorded-value
Cc1ccc(C)cc1 [1,4-dimethylbenzene] + Cn1cc[n+](COCCCOC[n+]2ccn(C)c2)c1.N#C[N-]C#N.N#C[N-]C#N	9.96
CO [methanol] + Cn1cc[n+](COCCCOC[n+]2ccn(C)c2)c1.N#C[N-]C#N.N#C[N-]C#N	0.37

Quick request: activity coefficient for each listed item, please.
1. c1ccsc1 [thiophene] + CCCOC[n+]1ccn(C)c1.O=S(=O)([N-]S(=O)(=O)C(F)(F)F)C(F)(F)F
2. CCC[N+](=O)[O-] [1-nitropropane] + CCCCCCCCn1cc[n+](COCCC)c1C.O=S(=O)([N-]S(=O)(=O)C(F)(F)F)C(F)(F)F
3. CCC[N+](=O)[O-] [1-nitropropane] + CCCOC[n+]1ccn(Cc2ccccc2)c1.N#C[N-]C#N
4. CC(C)O [propan-2-ol] + CCCCCCCCn1cc[n+](COCCC)c1C.O=S(=O)([N-]S(=O)(=O)C(F)(F)F)C(F)(F)F
5. C[N+](=O)[O-] [nitromethane] + CCCCCCCCn1cc[n+](COCCC)c1C.O=S(=O)([N-]S(=O)(=O)C(F)(F)F)C(F)(F)F

Reply:
1.04
0.53
1.06
0.99
0.52

---

assay-info: activity coefficient (dimensionless); of the first substance listed, at infinite dilution; xn = mol fraction of the nth substance listed
stated-conditions: 343.15 K; Liquid; Chromatography; x1 = 0
Label y when activity coefficient is strictly below 2; at or above that, label n.

A selection of reference data follows.
molecule	group
C[N+](=O)[O-] [nitromethane] + CCCOC[n+]1ccn(Cc2ccccc2)c1.N#C[N-]C#N	y
CC(C)OC(C)C [diisopropyl ether] + CCCCCCCCn1cc[n+](COCCC)c1C.O=S(=O)([N-]S(=O)(=O)C(F)(F)F)C(F)(F)F	y

Query: Say whether its activity coefficient is strictly beneath 2. Entry: Cc1ccccc1 [toluene] + CCCOC[n+]1ccn(C)c1.N#C[N-]C#N
Reply: n

Query: Say whether its activity coefficient is strictly beneath 2. Entry: CCOCC [diethyl ether] + CCCCCCCCn1cc[n+](COCCCOC[n+]2ccn(CCCCCCCC)c2C)c1C.N#C[N-]C#N.N#C[N-]C#N
Reply: n

---

assay-info: activity coefficient (dimensionless); of the first substance listed, at infinite dilution; xn = mol fraction of the nth substance listed
stated-conditions: 343.15 K; Liquid; Chromatography; x1 = 0
quantity: activity coefficient
Numbers only.

compound	activity coefficient
CC(C)O [propan-2-ol] + CCCCCCCCn1cc[n+](COCCCOC[n+]2ccn(CCCCCCCC)c2C)c1C.N#C[N-]C#N.N#C[N-]C#N	0.38
C1CCCCC1 [cyclohexane] + CN(C)c1cc[n+](COCCCOC[n+]2ccc(N(C)C)cc2)cc1.O=S(=O)([N-]S(=O)(=O)C(F)(F)F)C(F)(F)F.O=S(=O)([N-]S(=O)(=O)C(F)(F)F)C(F)(F)F	8.67
ClC(Cl)(Cl)Cl [tetrachloromethane] + Cn1cc[n+](COCCCOC[n+]2ccn(C)c2)c1.O=S(=O)([N-]S(=O)(=O)C(F)(F)F)C(F)(F)F.O=S(=O)([N-]S(=O)(=O)C(F)(F)F)C(F)(F)F	2.29

Quick request: activity coefficient for each listed item, please.
1. c1ccccc1 [benzene] + CCCOC[n+]1ccn(Cc2ccccc2)c1.N#C[N-]C#N
2. CC1CCCC1 [methylcyclopentane] + CN(C)c1cc[n+](COCCCOC[n+]2ccc(N(C)C)cc2)cc1.O=S(=O)([N-]S(=O)(=O)C(F)(F)F)C(F)(F)F.O=S(=O)([N-]S(=O)(=O)C(F)(F)F)C(F)(F)F

Reply:
1: 1.5; 2: 9
